B1: library; a variant is named by its letters at N, in order (parent)
chain: GCUGUCACCGAGAAACUGUGAAGUAUAUCUUAAACCUGGGCACUUAAAAGAUAUAUGGAGUUAGUAGUGCAACCUGCUCGGUCUGAUGAGUCCNNNNNNGGACGAAACAGC

# Variants of: B1
# assayRemarks: normalized RNA/DNA level with ligand (relative to sTRSVctl = 100) (log10 (% of sTRSVctl)); HEK293T; ligand: cyclic di-GMP (c-di-GMP-II aptamer); ligand concentration (+) RNA-Seq: 1 mM; higher = less ribozyme self-cleavage, higher mRNA level
# experimentalParameters: reporter: mCherry (pCS4076), ligand present: yes
readoutLabel: normalized RNA/DNA level with ligand (log10)
Answers are plain numbers.

- CUAAUG: 1.7
- ACGUCC: 1.93
- AGACGU: 1.75
- AAAUCA: 1.77
- UGCUGA: 1.8

// each listed variant needs a value for normalized RNA/DNA level with ligand (log10)
1. GAAGAC
2. AGCCAU
3. UAUACU
4. UCUAAC

1: 1.76; 2: 1.8; 3: 1.85; 4: 1.83
